Where do the numbers come from? From patent US20260069689A1.

Molecular target: SARS-COV-2 RBD extracellular domain expressed with a C-terminal mouse IgG2a Fc (SARS-CoV-2)
Experiment: Biacore SPR, mAb captured on anti-hFc, 37 C

BINDER: mAb15158 (antibody, V domains shown) VH: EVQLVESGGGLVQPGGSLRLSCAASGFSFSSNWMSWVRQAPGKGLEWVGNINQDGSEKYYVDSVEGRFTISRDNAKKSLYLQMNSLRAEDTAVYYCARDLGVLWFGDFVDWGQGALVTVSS VL: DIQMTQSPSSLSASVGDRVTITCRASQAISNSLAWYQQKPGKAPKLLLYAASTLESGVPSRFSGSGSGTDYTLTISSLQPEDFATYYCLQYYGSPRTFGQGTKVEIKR
koff, s⁻¹: 2.9e-05
